- EXPERIMENT_NOTES: Antiproliferative activity against mouse +SA cells assessed as cell viability after 4 days by MTT assay
- Format: functional, cell-based
- PARTICULARS: 96 h

- QUERY_SMILES: "CC(C)=CCC/C(C)=C/CC/C(C)=C/CC[C@]1(C)CCc2cc(O)cc(C)c2O1"
  IC50 (µM): 7

---

- System: Escherichia coli
- EXPERIMENT_NOTES: Antimicrobial activity against Escherichia coli up to 50 ug/mL
- Assay type: functional, organism-based
Calls of active or inactive are those of the source. No cut-off for these calls is given here.

- COMPOUND: "C=C1C=C2[C@@H](CC1)[C@H](C)[C@H](OC(C)=O)C[C@H]2[C@H](C)C(OC(C)=O)C(=O)C=C(C)C (some centres undefined) [SINULODURIN A]"
  Activity: "inactive"
- COMPOUND: "C=C1C=C2[C@@H](C[C@@H]1O)[C@@H](C)CC[C@@H]2[C@@H](C)CCC=C(C)C"
  Activity: "inactive"
- COMPOUND: "C=C1C=C2[C@@H](CC1)[C@H](C)CC[C@H]2[C@H](C)C(OC(C)=O)C(=O)C=C(C)C (some centres undefined) [SINULODURIN B]"
  Activity: "inactive"
- COMPOUND: "C=C1C=C2[C@H](CC1)[C@@H](C)CC[C@@H]2[C@@H](C)CCC=C(C)C"
  Activity: "inactive"
